Please consider the recorded pIC50 for HSPDE10A1 (Homo sapiens, UniProt Q9HCR9) in what follows.
pIC50: −log10 of the molar value.

>  <molecule>
Cc1[nH]c(=O)c(C#N)cc1-c1ccncc1

>  <readout_relation>
<

>  <pIC50>
3.70

$$$$
>  <molecule>
COc1ccc(C2CNC(=O)C2)cc1OC1CCCC1 (stereo not drawn)

>  <readout_relation>
=

>  <pIC50>
3.80

$$$$
>  <molecule>
CC(C)Cn1c(=O)n(C)c(=O)c2[nH]cnc21

>  <readout_relation>
=

>  <pIC50>
4.40

$$$$
